test system: RARb homodimer (NR concentration 270 nM); assay: PBM binding z-score (relative to random genomic background probes); higher = stronger binding; sequences stand for … in GC…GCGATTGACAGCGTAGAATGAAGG
outcomeMeasure: PBM binding z-score

{"chainSequence": "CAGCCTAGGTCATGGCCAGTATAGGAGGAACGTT", "experimentalResult": 3.01}
{"chainSequence": "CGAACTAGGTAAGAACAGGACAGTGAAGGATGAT", "experimentalResult": -0.183}
{"chainSequence": "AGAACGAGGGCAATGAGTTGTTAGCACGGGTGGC", "experimentalResult": 0.552}
{"chainSequence": "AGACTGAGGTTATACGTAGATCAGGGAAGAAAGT", "experimentalResult": 0.864}
{"chainSequence": "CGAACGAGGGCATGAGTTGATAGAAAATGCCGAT", "experimentalResult": 0.815}
{"chainSequence": "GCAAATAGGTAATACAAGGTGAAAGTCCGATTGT", "experimentalResult": 0.898}
{"chainSequence": "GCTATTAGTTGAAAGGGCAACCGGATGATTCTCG", "experimentalResult": 2.11}
{"chainSequence": "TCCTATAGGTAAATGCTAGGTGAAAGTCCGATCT", "experimentalResult": 0.372}
